// pIC50 collected for UniProt P14902
Sequence (P14902 whole entry): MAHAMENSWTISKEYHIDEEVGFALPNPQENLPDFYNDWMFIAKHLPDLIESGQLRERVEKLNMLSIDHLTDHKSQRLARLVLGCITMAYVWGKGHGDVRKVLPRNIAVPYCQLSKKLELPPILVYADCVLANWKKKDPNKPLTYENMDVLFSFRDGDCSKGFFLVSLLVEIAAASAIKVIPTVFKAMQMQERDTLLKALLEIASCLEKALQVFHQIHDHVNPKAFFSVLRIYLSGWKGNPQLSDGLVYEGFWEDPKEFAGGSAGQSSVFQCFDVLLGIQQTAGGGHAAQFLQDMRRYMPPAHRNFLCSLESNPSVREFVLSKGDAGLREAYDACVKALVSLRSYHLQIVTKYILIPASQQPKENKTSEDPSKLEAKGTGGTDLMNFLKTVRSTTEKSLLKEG
pIC50: −log10 of the molar value.
READOUT TYPE: pIC50

> print(dat)
                       smiles.representation  readout.type        result
 1          Nc1oc2cnccc2c1Nc1ccc(F)c(Cl)c1Cl         pIC50        < 6.00
 2  Cc1cc(-c2nccc3c(Nc4ccccc4Cl)c(N)oc23)ccn1         pIC50        > 6.70
 3             COc1cccc(Nc2c(N)sc3ccccc23)c1         pIC50  6.00 to 6.70
 4      CC(F)(F)c1cc(Nc2c(N)oc3cnccc23)ccc1F         pIC50  6.00 to 6.70
 5         CC(=O)c1ccc(Nc2c(N)oc3cnccc23)cc1         pIC50        < 6.00
 6        Nc1oc2cnccc2c1Nc1ccc(Cc2ccccc2)cc1         pIC50        < 6.00
 7                   Nc1oc2cnccc2c1Nc1ccccc1         pIC50  6.00 to 6.70
 8            Cc1cc(Nc2c(N)oc3cnccc23)ccc1Cl         pIC50  6.00 to 6.70
 9  Nc1oc2c(-c3ccccc3)nccc2c1Nc1cccc(C(F)(F)F)c1         pIC50        > 6.70
10               Nc1sc2ccccc2c1Nc1cccc(Cl)c1         pIC50        > 6.70
11              Nc1oc2cnccc2c1Nc1ccc(F)cc1Br         pIC50        < 6.00
12            Nc1oc2cnccc2c1Nc1ccc(F)c(Cl)c1         pIC50        > 6.70
13            Nc1sc2cnccc2c1Nc1ccc(F)c(Cl)c1         pIC50        < 6.00
14  CCCCNC(=O)c1cc(-c2nccc3c(Nc4ccc(F)c(Cl)c4)c(N)oc23)ccn1         pIC50        > 6.70
15           N#Cc1cccc(Nc2c(N)oc3cnccc23)c1F         pIC50        < 6.00
16         Nc1sc2ccccc2c1Nc1cccc(C(F)(F)F)c1         pIC50        > 6.70
17  Nc1oc2c(-c3ccnc(C(F)(F)F)c3)nccc2c1Nc1ccc(F)c(Cl)c1         pIC50        > 6.70
18         Nc1oc2cnccc2c1Nc1ccc(Cl)c(Cl)c1Cl         pIC50        < 6.00
19  Cc1cc(-c2nccc3c(Nc4ccc(F)c(Cl)c4)c(N)oc23)cc(C)n1         pIC50        > 6.70
20           Nc1oc2cnccc2c1Nc1ccc2c(c1)CCCC2         pIC50        < 6.00
21            Nc1oc2cnccc2c1Nc1ccc(I)c(Cl)c1         pIC50        < 6.00
22  Cc1cc(-c2nccc3c(Nc4ccc(F)c(F)c4)c(N)oc23)ccn1         pIC50        > 6.70
23       CC(C)(C)c1cccc(Nc2c(N)oc3cnccc23)c1         pIC50        < 6.00
24            Cc1ccc(Nc2c(N)oc3cnccc23)cc1Cl         pIC50        > 6.70
25            C#Cc1ccc(Nc2c(N)oc3cnccc23)cc1         pIC50        < 6.00
26            C#Cc1cccc(Nc2c(N)sc3ccccc23)c1         pIC50  6.00 to 6.70
27      COc1cncc2oc(N)c(Nc3ccc(F)c(Cl)c3)c12         pIC50        < 6.00
28   COc1cc2c(Nc3ccc(F)c(Cl)c3)c(N)oc2c(I)n1         pIC50        > 6.70
29  CNC(=O)c1cc(-c2nccc3c(Nc4ccc(F)c(Cl)c4)c(N)oc23)ccn1         pIC50        > 6.70
30  COc1ccccc1-c1nccc2c(Nc3ccc(F)c(F)c3)c(N)oc12         pIC50  6.00 to 6.70
31          CC(C)c1cccc(Nc2c(N)oc3cnccc23)c1         pIC50  6.00 to 6.70
32         COc1ccc(Nc2c(N)oc3cnccc23)c(OC)c1         pIC50        < 6.00
33            N#Cc1ccc(Nc2c(N)oc3cnccc23)cc1         pIC50        < 6.00
34         C#Cc1cccc(Nc2c(N)oc3c(C)nccc23)c1         pIC50  6.00 to 6.70
35                Nc1sc2ccccc2c1Nc1ccc(F)cc1         pIC50  6.00 to 6.70
36               Nc1oc2cnccc2c1Nc1ccc(Br)cc1         pIC50        < 6.00
37  Cc1cc(-c2nc(F)cc3c(Nc4ccc(F)c(Cl)c4)c(N)oc23)ccn1         pIC50        > 6.70
38          N#Cc1ccc2c(Nc3ccccc3Cl)c(N)oc2c1         pIC50        < 6.00
39        Nc1oc2cnccc2c1Nc1cccc(Cc2ccccc2)c1         pIC50        < 6.00
40        Nc1oc2cnccc2c1Nc1cc(Cl)c(F)c(Cl)c1         pIC50        < 6.00
41  CCOC(=O)Nc1oc2c(I)nccc2c1N(C(=O)OCC)c1ccc(F)c(Cl)c1         pIC50        < 6.00
